The measurements presented in this section are drawn from paper PMC11923213.

systemTested: TauT (taurine transporter, SLC6A6; TauT^WT) (Homo sapiens)
Construct: wild-type TauT expressed in Xenopus laevis oocytes for electrophysiology; cryo-EM sample details only in supplement
Sequence (P31641 whole entry): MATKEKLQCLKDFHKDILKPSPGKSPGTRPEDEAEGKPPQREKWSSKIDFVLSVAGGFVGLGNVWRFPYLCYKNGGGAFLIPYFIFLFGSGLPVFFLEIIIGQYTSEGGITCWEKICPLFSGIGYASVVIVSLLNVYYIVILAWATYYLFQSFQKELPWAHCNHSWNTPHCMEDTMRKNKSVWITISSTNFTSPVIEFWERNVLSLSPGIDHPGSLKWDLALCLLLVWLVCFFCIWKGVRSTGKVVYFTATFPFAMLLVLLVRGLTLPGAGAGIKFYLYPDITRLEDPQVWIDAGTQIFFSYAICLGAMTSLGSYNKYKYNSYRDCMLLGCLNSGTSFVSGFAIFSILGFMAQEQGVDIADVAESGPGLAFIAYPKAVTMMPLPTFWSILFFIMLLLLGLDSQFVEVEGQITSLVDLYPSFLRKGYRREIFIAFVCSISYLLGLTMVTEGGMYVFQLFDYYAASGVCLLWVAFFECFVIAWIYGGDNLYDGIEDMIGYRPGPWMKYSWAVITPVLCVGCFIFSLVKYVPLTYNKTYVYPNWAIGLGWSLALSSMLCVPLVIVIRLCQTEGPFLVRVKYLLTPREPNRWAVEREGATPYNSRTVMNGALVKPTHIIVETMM
methodNotes: two-electrode voltage clamp in Xenopus laevis oocytes, taurine-induced inward current
Format: cell-based
observable: EC50 (nM)
Quick note: give the figure in nM, leave out the unit.

Ask: Field request: EC50 | item: NCCS(=O)(=O)O
Reply: 2900

---

systemTested: TauT (taurine transporter, SLC6A6) (Homo sapiens, UniProt P31641, E406T)
Construct: wild-type TauT expressed in Xenopus laevis oocytes for electrophysiology; cryo-EM sample details only in supplement
Sequence (P31641 whole entry E406T): as the sequence (P31641 whole entry) above, with E406T counted along it
methodNotes: Xenopus laevis oocytes, taurine-induced inward current
observable: pEC50
Scale: negative log10 of molar concentration, which is what pEC50 denotes.

Ask: Field request: pEC50 | item: NCCS(=O)(=O)O [taurine]
Reply: 4.30
